B1: F-tractinopt–mCherry fusion [rat] / F-actin (rabbit skeletal muscle α-actin filaments) [rabbit] (parent complex)
chain 1: APRRSVGELRLLFEARAASAA
chain 2: not shown

- Variants of: B1
- TEST: high-speed cosedimentation assay (SDS-PAGE densitometry); 2 µM F-tractin-mCherry; high-speed sedimentation, 120,000 g; actin 0-40 µM
VALUE_TYPE: Kd (µM)

>>> df
   mutation_list  measured_result
0    chain 1 R3A               23
